System: SK-OV-3 ovarian
Assay: NCI-60 one-dose screen, 48 h
Settings: 10 µM unless noted
About 83,000 compounds went through this panel and 20% of them were active in at least one assay; those are over-represented in the sample as a whole. Active and inactive are the calls of the source. The calls were made as follows: active = growth percent below 10; inactive = the rest.
Outcomes you can answer with include only these: yes (active), no (inactive)

Query: Give the logged outcome of this assay for the following compound: `CN(C)Cc1c(-c2ccccc2)[nH]c2ccccc12`
Response: no

----------
Tested on: U251 CNS
Experiment: NCI-60 one-dose screen, 48 h
Settings: 10 µM unless noted
Compounds without any hit were thinned out: in the full panel of roughly 83,000, 20% have a hit. Activity calls are given as the source filed them. Rule for the calls: active = growth percent below 10; inactive = the rest.
Parameter call: string, one of yes for active, no for inactive

| Molecule | Class |
| --- | --- |
| C#Cc1cccc(NC(=O)Nc2ccc(NC(=O)CCl)cc2)c1 | yes |
| O=C(Nc1nc2ccc(S(=O)(=O)Nc3ccc(C4(C(F)(F)F)CC4)cc3)cc2[nH]1)c1cnccn1 | no |
| CNC(=O)Nc1ccc(-c2nc(N3CCOCC3)nc3c2cnn3C2CCOCC2)cc1 | yes |
| CC1(C)CN(c2cnc(C(=O)Nc3cc(F)cc4cccnc34)cn2)CCN1 | no |
| COc1cc2nc(Cc3ccc(C)cc3)[nH]c(=O)c2cc1OC | no |
| Cc1ccc(C2CC(c3cccc(Nc4ccncc4)c3)=NN2c2ccccc2)cc1 (stereo unspecified) | yes |
| CC1(C)CC[C@]2(C(=O)NCC#CCN3CCOCC3)CC[C@]3(C)C(=CC[C@@H]4[C@@]5(C)Cc6c([nH]c7ccccc67)C(C)(C)[C@@H]5CC[C@]43C)[C@@H]2C1 | no |
| Cc1cccc(C)c1-c1cc(Cc2ccc(Cl)cc2)c(=O)[nH]n1 | no |

Query: // outcome(item) with item = CCN(CC)CCCC(C)Nc1c2c(nc3ccc(OC)cc13)CCCC2 (stereo unspecified)
Response: no

Query: Hey, what did the test say about `c1ccc(CCSc2ncnc3nc[nH]c23)cc1` ?
Response: no

Query: What is the recorded call for this molecule in the test? COc1ccc(C(O)c2cc3c(N)c(C(=O)Nc4ccc(Cl)cc4)sc3nc2C)cc1 (stereo unspecified)
Response: no

Query: Kindly provide the recorded test outcome for the following molecule: CC1=NNC(=O)C1CCC(=O)N/N=C(\C)c1ccc2ccccc2c1 (stereo unspecified)
Response: no

----------
System: NCI-H522 lung
Assay: NCI-60 one-dose screen, 48 h (100 = growth as untreated, 0 = no growth, -100 = all killed)
Settings: 10 µM unless noted
Compounds without any hit were thinned out: in the full panel of roughly 83,000, 20% have a hit.
Observed property: growth (%)
Give the quantity in %, number only.

Study these solved cases before continuing.
| Compound | Units of measure | growth |
| --- | --- | --- |
| O=C(N/N=C/c1cccnc1)c1ccccc1Nc1cccc(C(F)(F)F)c1 | % | 81.8 |
| COc1ccc2c(/C=C3/C(=O)NC(=S)NC3C)cc(=O)oc2c1 (stereo unspecified) | % | 82.3 |

With those in mind, consider the next compound.
Query: Read the entry `Cc1[nH]c(C(=O)Nc2ccccc2OCc2cccc(C(=O)NCCN)c2)c(Cl)c1Cl` and write its reported growth.
Response: 80.9

----------
Test system: OVCAR-4 ovarian
Assay: NCI-60 one-dose screen, 48 h
Conditions: 10 µM unless noted
The panel holds about 83,000 compounds, 20% with a hit somewhere; the sample as a whole holds those more often. The source made the active and inactive calls. Rule for the calls: active = growth percent below 10; inactive = the rest.
Log the outcome using a class from TRUE for active, FALSE for inactive

The examples below pair each entry with its known result.
| Compound | Target or test system | Class |
| --- | --- | --- |
| CCOC(=O)c1cnc2c(cnn2CC)c1NN=C(C)C | OVCAR-4 ovarian | FALSE |
| COc1ccccc1/C=C1\COc2ccc(-c3ccccc3)cc2C1=O | OVCAR-4 ovarian | FALSE |
| CC[N+](CC)(CCCC(C)[N+]1(Cc2ccccc2)C(C)=CC=C1C)Cc1ccccc1 (stereo not given) | OVCAR-4 ovarian | FALSE |
| c1ccc(CCSc2ncnc3nc[nH]c23)cc1 | OVCAR-4 ovarian | FALSE |
| CC(C)CCSc1nc(NNC(N)=O)c(C#N)c(-c2ccccc2)n1 | OVCAR-4 ovarian | FALSE |

Query: I would be grateful if you could indicate the recorded call for `CCN(CCNc1cc(OC)cc2cccnc12)CCc1ccccc1` .
Response: FALSE

Query: Please let me know the test result on file for `O=S(=O)(NCCCNc1nccc(-c2c(-c3cccc(O)c3)nc3occn23)n1)c1ccc(Br)cc1` .
Response: FALSE

Query: Check the results log: what was the call for `Cn1/c(=N/NC(N)=S)ccc2ccccc21` ?
Response: FALSE

Query: Please state the recorded outcome for this compound: `Cc1nn(-c2ccccc2)c(N2CCOCC2)c1/C=N/N=c1\sc2ccccc2n1C`
Response: FALSE

Query: Tell me the recorded outcome of this test for `NC(=O)c1cccc(-c2ccccc2N2CCCCC2)c1` .
Response: FALSE

Query: Status in this test for `Cc1cc2nc(-c3ccccc3)c(-c3ccccc3)nc2cc1C` ?
Response: FALSE

Query: Please indicate how the test categorized `CC(=O)c1cc2c(N)c(C(=O)Nc3cncc4ccccc34)sc2nc1C` .
Response: FALSE

Query: Per the assay record, what outcome was assigned to `O=C(O)CCCCCCCCCCCCCCC(=O)O` ?
Response: FALSE

Query: Which outcome was entered for the compound `CCCCCCOc1ccc(/C=N/Nc2cc(C)nc3ccc(Br)cc23)cc1` in this test?
Response: TRUE

Query: Given `Cc1c([N+](=O)[O-])cc(C(C)(C)C)cc1[N+](=O)[O-]` , state the outcome it received in this test.
Response: FALSE

Query: # lookup: test call for `CS(=O)(=O)c1ccc(-c2cc(-c3nnc(SCC(=O)Nc4ccc(C(=O)/C=C/c5ccc(Cl)cc5)cc4)n3-c3ccccc3)c3ccccc3n2)cc1`
Response: FALSE

Query: Identify the outcome logged in this assay for the compound shown: `CCOC(=O)C1=C(C)NC(C)=C(C(=O)OCC)C1c1cc(Br)c(O)c(OC)c1`
Response: FALSE

Query: So what was the verdict on `CC(=O)c1c[nH]c2ccc(-c3ccnc(Nc4ccc(NC(=O)C5CCCC5)c(CN5CCOCC5)c4)n3)cc12` in this test?
Response: TRUE

Query: What call does the record list for `CC(=O)c1cccc(NS(=O)(=O)c2cccc(C(=O)Nc3ccc(Br)cc3)c2)c1` ?
Response: FALSE

Query: Returns: the outcome recorded for `O=S(=O)(NCCNc1nccc(-c2c(-c3ccc(F)c(O)c3)nc3sccn23)n1)c1ccccc1` in this assay.
Response: FALSE
